Test system: Liver
Assay: Half life in mouse liver homogenate by HPLC analysis at pH 7.4
Assay type: ADME, tissue-based
Details: in vitro
metric_name: t1/2 (h)
// note: answer is a bare numeric in h

given_smiles	experimental_value
CC(C)N(Cc1ccc2c(c1)C=CC(C)(C)O2)S(=O)(=O)c1ccccn1	20
CC(C)CN(Cc1cc(O)c2c(c1)C=CC(C)(C)O2)S(=O)(=O)c1ccccn1	15
COc1ccc(S(=O)(=O)N(Cc2ccc3c(c2)C=CC(C)(C)O3)c2ccccc2)cc1OC	11
CC1(C)C=Cc2cc(CN(CC3CC3)S(=O)(=O)c3ccccn3)ccc2O1	13

Please look at the following molecule next.
Which value of t1/2 has been reported for "COc1cc(CN(C(C)C)S(=O)(=O)c2ccccn2)cc2c1OC(C)(C)C=C2" in the records?
15
